These measurements were taken from BindingDB's records for patent US10155727.

# system_name: Glutamate receptor ionotropic, NMDA 2B (Rattus norvegicus, UniProt P35439+Q00960)
# Sequence (Q00960 whole entry, one chain of several): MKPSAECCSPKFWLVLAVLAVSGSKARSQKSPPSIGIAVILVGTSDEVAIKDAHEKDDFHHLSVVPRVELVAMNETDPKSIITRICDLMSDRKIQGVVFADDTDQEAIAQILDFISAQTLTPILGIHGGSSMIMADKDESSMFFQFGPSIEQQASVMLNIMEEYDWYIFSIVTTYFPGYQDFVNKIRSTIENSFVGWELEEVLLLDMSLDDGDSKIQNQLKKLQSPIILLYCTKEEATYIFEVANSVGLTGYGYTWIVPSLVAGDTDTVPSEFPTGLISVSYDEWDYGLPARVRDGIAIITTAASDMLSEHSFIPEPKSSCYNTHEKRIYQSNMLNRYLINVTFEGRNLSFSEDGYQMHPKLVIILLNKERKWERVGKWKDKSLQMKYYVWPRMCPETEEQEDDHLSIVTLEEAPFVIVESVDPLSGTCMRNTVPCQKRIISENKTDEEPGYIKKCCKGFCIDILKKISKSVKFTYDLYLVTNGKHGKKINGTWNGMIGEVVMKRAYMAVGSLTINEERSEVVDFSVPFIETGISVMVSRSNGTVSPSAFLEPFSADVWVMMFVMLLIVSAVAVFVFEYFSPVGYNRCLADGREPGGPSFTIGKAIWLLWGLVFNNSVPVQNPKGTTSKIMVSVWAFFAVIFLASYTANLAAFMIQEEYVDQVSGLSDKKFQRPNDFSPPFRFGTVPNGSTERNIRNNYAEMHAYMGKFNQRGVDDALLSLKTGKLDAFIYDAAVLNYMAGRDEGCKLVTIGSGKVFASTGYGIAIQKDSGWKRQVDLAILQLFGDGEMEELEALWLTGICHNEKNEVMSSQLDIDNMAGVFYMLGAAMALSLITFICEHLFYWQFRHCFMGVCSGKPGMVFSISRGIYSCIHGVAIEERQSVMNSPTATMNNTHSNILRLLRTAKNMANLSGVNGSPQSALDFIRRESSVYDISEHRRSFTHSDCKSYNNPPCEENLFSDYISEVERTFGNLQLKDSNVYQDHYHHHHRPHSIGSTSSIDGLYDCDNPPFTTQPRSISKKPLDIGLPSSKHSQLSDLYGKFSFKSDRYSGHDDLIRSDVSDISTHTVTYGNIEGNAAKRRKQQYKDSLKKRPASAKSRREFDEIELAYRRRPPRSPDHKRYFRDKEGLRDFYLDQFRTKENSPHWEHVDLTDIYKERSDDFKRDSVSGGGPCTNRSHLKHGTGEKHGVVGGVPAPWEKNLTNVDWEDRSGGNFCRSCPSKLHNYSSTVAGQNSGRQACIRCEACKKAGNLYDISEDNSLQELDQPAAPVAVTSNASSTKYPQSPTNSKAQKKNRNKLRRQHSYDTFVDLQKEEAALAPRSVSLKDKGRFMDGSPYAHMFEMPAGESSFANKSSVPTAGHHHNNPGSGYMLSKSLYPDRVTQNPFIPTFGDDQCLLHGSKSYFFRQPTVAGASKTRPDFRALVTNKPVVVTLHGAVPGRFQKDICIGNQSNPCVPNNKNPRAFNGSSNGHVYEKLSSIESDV
# assay_details: Inhibition of Specific Binding to the Rat NR1/NR2B Receptor
Listing of entries alongside the reported IC50.

molecule="Cc1cc(Cn2cc(-c3ccc(C(F)(F)F)cc3)cn2)n(C)n1 [US10155727, Example 51]" meas_value="9.21 µM"

Now for a further molecule.
IC50 measured on Cn1ccc(Cn2cc(-c3cccc(C(F)(F)F)c3)cn2)n1 [US10155727, Example 49] = 2.25 µM
